Test system: U2OS
Assay: Multiplex assay against U2OS
Type: toxicity, cell-based
Settings: human, 12 h, 1 µM, compound concentration 1 uM, replicate 1
Could you please report measured Total Cell Count for the items listed next?
Give only the figure.

Q: Return Total Cell Count (reported value) for this molecule: Nc1nc(-c2ccco2)c2cnn(Cc3ccccc3F)c2n1
Ans: 280

Q: Tell us which Total Cell Count value is on record for Nc1nc(CC(=O)Nc2ccc(CCNC[C@H](O)c3ccccc3)cc2)cs1 [MIRABEGRON]
Ans: 240

Q: State its Total Cell Count for this molecule: CCCCCCNC(=O)Nc1ccc(S(=O)(=O)Nc2ccc(CCNC[C@H](O)COc3ccc(O)cc3)cc2)cc1 [L-755507]
Ans: 231

Q: Using the record for OCCCNc1cc(-c2ccnc(Nc3cccc(Cl)c3)n2)ccn1 , state its measured Total Cell Count.
Ans: 200

Q: // Input: Cc1cc(NC(=O)NCCN2CCC(O)(Cc3ccccc3)CC2)c2ccccc2n1 [PALOSURAN] . Output its Total Cell Count only.
Ans: 220

Q: Give Total Cell Count for C[C@H](NC(=O)CNC(=O)c1cccc(Cl)c1)c1ccccc1
Ans: 242

Q: Tell us which Total Cell Count value is on record for COCCn1c(C)c(C)s/c1=N\C(=O)C1C(C)(C)C1(C)C
Ans: 271

Q: Supply Total Cell Count value. Item: COc1ccc2c(c1OCc1ccccc1)C[C@@H](C(=O)O)N(C(=O)C(c1ccccc1)c1ccccc1)C2 [OLODANRIGAN]
Ans: 286

Q: Fill in reported Total Cell Count for this entry: Cc1c(Cc2ccc3ccccc3n2)c2cc(F)ccc2n1CC(=O)O [TIMAPIPRANT]
Ans: 298

====

Test system: U2OS
Assay: Multiplex assay against U2OS
Format: toxicity, cell-based
Conditions: human, 12 h, 10 µM, compound concentration 10 uM, replicate 2
For each entry below, report its Population Mitotic Cells (%) value.

Q: Let me know recorded Population Mitotic Cells (%) for Cc1cc(O)c(-c2ccc([C@@H](C)CN(C)C)cc2)c2c1[nH]c(=O)c1sccc12 , thanks.
Ans: 30%

Q: Return Population Mitotic Cells (%) (reported value) for this molecule: CCC(=O)OCC(=O)[C@@]1(OC(=O)CC)[C@@H](C)C[C@H]2[C@@H]3CCC4=CC(=O)C=C[C@]4(C)[C@@]3(Cl)[C@@H](O)C[C@@]21C [BECLOMETHASONE DIPROPIONATE]
Ans: 31%

Q: Note down Population Mitotic Cells (%) recorded for COc1cc2nc(N3CCN(C(=O)c4ccco4)CC3)nc(N)c2cc1OC.Cl [PRAZOSIN HYDROCHLORIDE]
Ans: 27%

Q: For the molecule Cc1nn(C)c2nc(NNC(=O)Nc3cc(Cl)nc(Cl)c3)cc(C(C)C)c12 , report Population Mitotic Cells (%).
Ans: 52%

Q: Identify Population Mitotic Cells (%) associated with the molecule CC(C)(C)c1ccc(CSc2cnn(C(C)(C)C)c(=O)c2Cl)cc1
Ans: 12%

Q: Indicate the recorded Population Mitotic Cells (%) value for this molecule: COC(c1ccccc1)(c1ccccc1)[C@H](Oc1nc(C)cc(C)n1)C(=O)O
Ans: 0%

Q: Please give measured Population Mitotic Cells (%) of the following entry: CN(C)C/C=C/C(=O)Nc1ccc(C(=O)N2CCCC(Nc3ncc(Cl)c(-c4c[nH]c5ccccc45)n3)C2)cc1 (centres undefined)
Ans: 25%

Q: Tell us which Population Mitotic Cells (%) value is on record for O=C(Nc1cc(-c2ccccc2)nn1-c1ccccc1F)c1ccc([N+](=O)[O-])cc1
Ans: 5%

Q: Supply Population Mitotic Cells (%) value. Item: CCCCCCNC(=O)Nc1ccc(S(=O)(=O)Nc2ccc(CCNC[C@H](O)COc3ccc(O)cc3)cc2)cc1
Ans: 27%
